// provenance: PubChem BioAssay AID1508600

PROTOCOL_NOTES: Components of the Cytosolic LPS Sensing Pathway: Gene Identification via Genome-wide siRNA Screen;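 note: robust z of the log signal after scaling to non-targeting control siRNA wells of the plate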
RUN_PARAMETERS: RAW264.7 macrophages, IL-1a HTRF, actives lie on both sides, screened at 100 nM (by protocol), cells primed 5 h with Pam3CSK4 first
Hit rate of the full screen: of about 53,000 sequences, about 3,700 (7%) were called active. Many of the other results were omitted from the sample, so actives are more common in it than they were.
# if value of z-score reaches -0.3, tag YES; if it stays below, tag NO

BIOPOLYMER_SEQUENCE	LABEL
GGAGAAGCCAAAAGAAUGCTT against Xrn2	NO

Proceed to the following item.
Q. Does the sequence AAGGACGAUCCUGAUUUCATT against Gm5431 have recorded z-score that is -0.3 or more?
A. YES

###

PROTOCOL_NOTES: Components of the Cytosolic LPS Sensing Pathway: Gene Identification via Genome-wide siRNA Screen;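 note: robust z of the log signal after scaling to non-targeting control siRNA wells of the plate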
RUN_PARAMETERS: RAW264.7 macrophages, IL-1a HTRF, actives lie on both sides, screened at 100 nM (by protocol), cells primed 5 h with Pam3CSK4 first
Screen size: about 53,000 sequences; about 3,700 (7%) were called active. Only a selection was taken, and actives are over-represented in it overall.
MEASURED_PROPERTY: z-score
Reply: number alone, nothing else.

Example cases with answers are listed next.
BIOPOLYMER_SEQUENCE	z-score
GGCGGUCAAGGGAAAAACATT against Tcf7	2.19
GGUCAUCCUUUUUCAGUACTT against Lhx6	2.28
CCUUGUUUUUCACAAAUCATT against Usp7	-0.182
GGCUGUUCAAAGUGACCCUTT against Hbp1	-3.11
AACCAUUCAGGAGAAAGCCTT against Lce1a1	-3.05
GGAAAUGUCUUAUGAUAACTT against Col5a1	0.194
GGAAGUAGGCAGCAUCAUCTT against Pcbp1	1.13
CCUCAUCAUAUUCUCCUGATT against Olfr869	-0.848
CCCUGCAUUUGUCAAUUAUTT against Hnrnpl	-0.161
CGACCUUCAAGGCAAUAUUTT against Anapc2	-0.573

Q. z-score for GGCAGUAUCAAAGAAAUUGTT against Rps6ka3 ?
A. 3.43

Q. Next up: GGCUUCAUUUACUGUAACGTT against Flrt3
A. -0.12

###

PROTOCOL_NOTES: Components of the Cytosolic LPS Sensing Pathway: Gene Identification via Genome-wide siRNA Screen;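 note: robust z of the log signal after scaling to non-targeting control siRNA wells of the plate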
RUN_PARAMETERS: RAW264.7 macrophages, IL-1a HTRF, actives lie on both sides, screened at 100 nM (by protocol), cells primed 5 h with Pam3CSK4 first
About 3,700 (7%) of roughly 53,000 sequences were called active.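 The calls were made as follows: active = gene knockdowns whose robust z-score for IL-1 alpha signal is at least 2 or at most -2, so actives lie on both sides; inactive = the rest.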 The full list was thinned out, with actives kept by preference.
Response enum: y (active), n (inactive)

Please review the following examples before continuing.
BIOPOLYMER_SEQUENCE	LABEL
GGUGGAAGCAAUUUUAAAUTT against Trpc7	n
GGUAUGCAACCUUGCCUUUTT against Coa3	n
GGACACUUUACAGUGAUUGTT against Skint4	n
GGGUUGUCCUGAACUUUAATT against Npr1	n
CCAAAGUUCCCUUAGCCAUTT against Cntrob	n

Q. What call does the record list for GGAGAUCCUUAAGCUGUUGTT against Aen ?
A. y

Q. Thanks! And GGAAAAGAAGACCUACACCTT against Ppp1r1c ?
A. y

Q. Next sequence up: CCCAAUGUUUCUAAUCAUGTT against Arhgap12
A. n
